Molecular target: UniProtKB P08235
Sequence (P08235 whole entry): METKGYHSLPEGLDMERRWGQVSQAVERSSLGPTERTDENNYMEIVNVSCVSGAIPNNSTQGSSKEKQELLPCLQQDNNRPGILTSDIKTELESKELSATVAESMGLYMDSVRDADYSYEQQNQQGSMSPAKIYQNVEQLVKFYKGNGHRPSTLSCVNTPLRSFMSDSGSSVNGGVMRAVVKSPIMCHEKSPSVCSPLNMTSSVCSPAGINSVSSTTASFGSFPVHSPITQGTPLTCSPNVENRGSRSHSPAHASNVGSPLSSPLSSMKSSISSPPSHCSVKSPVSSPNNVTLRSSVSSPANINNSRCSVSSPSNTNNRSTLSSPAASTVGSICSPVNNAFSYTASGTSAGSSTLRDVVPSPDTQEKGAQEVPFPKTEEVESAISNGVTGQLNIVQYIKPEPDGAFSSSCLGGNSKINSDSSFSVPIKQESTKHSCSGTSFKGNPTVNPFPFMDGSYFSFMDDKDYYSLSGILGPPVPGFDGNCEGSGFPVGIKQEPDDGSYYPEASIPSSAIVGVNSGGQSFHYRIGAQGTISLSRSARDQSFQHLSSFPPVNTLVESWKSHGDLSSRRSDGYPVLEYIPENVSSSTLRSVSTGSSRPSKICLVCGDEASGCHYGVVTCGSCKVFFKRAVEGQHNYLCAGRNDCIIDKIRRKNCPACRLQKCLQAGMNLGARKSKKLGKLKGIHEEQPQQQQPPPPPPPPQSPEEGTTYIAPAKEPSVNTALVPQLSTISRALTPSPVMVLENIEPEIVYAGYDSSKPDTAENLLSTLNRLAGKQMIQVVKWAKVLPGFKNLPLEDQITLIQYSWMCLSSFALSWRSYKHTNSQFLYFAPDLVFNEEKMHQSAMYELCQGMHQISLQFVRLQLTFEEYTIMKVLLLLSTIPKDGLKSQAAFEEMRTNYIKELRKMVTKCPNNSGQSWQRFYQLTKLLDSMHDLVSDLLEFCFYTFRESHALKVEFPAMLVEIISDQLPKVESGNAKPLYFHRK
Assay: Transactivation of wild-type human recombinant mineralocorticoid receptor expressed in COS7 cells after 24 hrs by luciferase reporter gene assay
Assay type: cell-based, COS-7
observationType: pEC50
Please treat pEC50 as minus the base-10 logarithm of the molar concentration.

query: Suppose we examine the compound CC(=O)[C@H]1CC[C@H]2[C@@H]3CCC4=CC(=O)CC[C@]4(C)[C@H]3[C@@H](O)C[C@]12C [11BETA-HYDROXYPROGESTERONE] ; what pEC50 value has been reported?
result: 7.30

* * *

Target: 11-beta-hydroxysteroid dehydrogenase 1 (Homo sapiens, UniProt P28845)
Sequence (P28845 whole entry): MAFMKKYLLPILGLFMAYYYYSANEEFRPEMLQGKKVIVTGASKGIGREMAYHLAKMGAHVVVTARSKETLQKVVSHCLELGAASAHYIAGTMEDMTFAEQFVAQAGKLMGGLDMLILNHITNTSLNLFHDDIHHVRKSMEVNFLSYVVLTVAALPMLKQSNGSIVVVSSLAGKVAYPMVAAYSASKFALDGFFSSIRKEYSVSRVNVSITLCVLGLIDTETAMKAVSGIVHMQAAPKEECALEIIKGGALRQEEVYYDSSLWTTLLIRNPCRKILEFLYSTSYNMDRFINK
Assay: Inhibition of human recombinant 11beta-HSD1 expressed in HEK293 cells assessed as inhibition of [1,2,-3H]-cortisone to [3H]cortisol preincubated for 10 mins before substrate addition by scintillation counting
Measured IC50, listed per entry.
Your answer should be a plain number; it is taken to be in nM.

query: Suppose we examine the compound CC(=O)[C@H]1CC[C@H]2[C@@H]3CCC4=CC(=O)CC[C@]4(C)[C@H]3[C@@H](O)C[C@]12C [11BETA-HYDROXYPROGESTERONE] ; what IC50 value has been reported?
result: 1160

More entries:
query: Suppose we examine the compound CCOC(=O)/C(CN[C@H]1C[C@]2(C)[C@@H](C(C)=O)CC[C@H]2[C@@H]2CCC3=CC(=O)CC[C@]3(C)[C@H]21)=N\O ; what IC50 value has been reported?
result: 640

query: Another compound to look at: CC(=O)[C@H]1CC[C@H]2[C@@H]3CCC4=CC(=O)CC[C@]4(C)[C@H]3[C@H](O)C[C@]12C
result: 630

Hello, the source for this data is ChEMBL document CHEMBL2440032, in case you need it.
